species: Rattus norvegicus; assay: Selectivity ratio of IC50 for rat NAAA using d4-PEA as substrate to IC50 for rat FAAH using [3H]-AEA as substrate
recorded-metric: Ratio IC50

INSERT INTO assay_data (structure_smiles_string, cmp, reported) VALUES
  ('CC(=O)Oc1cn(C(=O)NCCCc2ccc(-c3ccccc3)cc2)c(=O)[nH]c1=O', '>', 10000),
  ('CC(=O)Oc1cn(C(=O)NCCCCCCCc2ccccc2)c(=O)[nH]c1=O', '=', 3130),
  ('CC(=O)Oc1cn(C(=O)NCCCCc2ccc(-c3ccccc3)cc2)c(=O)[nH]c1=O', '>', 10000),
  ('CCCCCCNC(=O)n1ccc(=O)[nH]c1=O', '=', 2);

----------
# IC50 values compiled below
target: Fatty-acid amide hydrolase 1 (Rattus norvegicus, UniProt P97612); assay: Inhibition of FAAH in Sprague-Dawley rat brain homogenate using arachidonoyl-ethanolamide and anandamide [ethanolamine-1-3H] as substrate pre-incubated for 10 mins followed by substrate addition and measured after 30 mins by liquid scintillation counting method; assay type: tissue-based
Sequence (P97612 whole entry): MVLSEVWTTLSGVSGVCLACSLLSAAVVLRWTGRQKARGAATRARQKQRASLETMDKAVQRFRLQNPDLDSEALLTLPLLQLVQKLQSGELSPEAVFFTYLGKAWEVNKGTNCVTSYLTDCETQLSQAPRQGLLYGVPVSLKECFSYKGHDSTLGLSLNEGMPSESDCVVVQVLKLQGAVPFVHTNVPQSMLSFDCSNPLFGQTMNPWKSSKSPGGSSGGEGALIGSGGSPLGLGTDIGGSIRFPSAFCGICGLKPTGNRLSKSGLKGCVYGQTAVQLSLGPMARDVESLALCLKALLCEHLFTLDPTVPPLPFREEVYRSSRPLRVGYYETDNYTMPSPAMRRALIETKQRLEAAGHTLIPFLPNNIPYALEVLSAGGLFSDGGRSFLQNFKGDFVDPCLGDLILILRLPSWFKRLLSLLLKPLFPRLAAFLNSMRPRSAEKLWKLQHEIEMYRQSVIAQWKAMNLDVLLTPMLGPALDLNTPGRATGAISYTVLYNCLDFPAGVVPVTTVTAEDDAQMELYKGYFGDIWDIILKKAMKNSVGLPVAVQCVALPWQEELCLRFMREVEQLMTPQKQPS
recorded-metric: IC50 (nM)

INSERT INTO assay_data (structure_smiles_string, reading_unit, reported) VALUES
  ('NC(=O)c1ccc(-c2ccc(OC(=O)NCCCCN3CCN(c4cccc(Cl)c4Cl)CC3)cc2)cc1', 'nM', 0.7),
  ('NC(=O)c1cccc(-c2cccc(OC(=O)NCCCN3CCN(c4cccc(Cl)c4Cl)CC3)c2)c1', 'nM', 0.1),
  ('O=C(NCCCCN1CCN(c2cccc(Cl)c2Cl)CC1)Oc1ccc2ccccc2c1', 'nM', 13),
  ('O=C(NCCCCN1CCN(c2cccc(Cl)c2Cl)CC1)Oc1cccc2ccccc12', 'nM', 22);

----------
target: UniProt P97612; assay: Inhibition of FAAH in rat brain homogenate using [3H]AEA as substrate; type: tissue-based
pIC50: −log10 of the molar value.
Hi, to clarify the labels: 1 covers pIC50 from 5 upward, 0 covers anything below 5.

INSERT INTO results (structure_smiles_string, answer_label) VALUES
  ('CCC/C=C/COCC(=O)Nc1ccccc1-c1nc2ncccc2[nH]1', 1),
  ('O=C(COc1ccc(-c2ccccc2)cc1)Nc1ccc(-c2nc3ncccc3o2)cc1', 1),
  ('CC(C)c1ccc(OCC(=O)Nc2cccc(-c3nc4ncccc4o3)c2)cc1', 1),
  ('CCCC/C=C/COCC(=O)Nc1ccc(-c2nc3ncccc3[nH]2)cc1', 0),
  ('O=C(COc1ccc(C2CCCCC2)cc1)Nc1ccccc1-c1nc2ncccc2[nH]1', 1),
  ('CCC/C=C/COCC(=O)Nc1cccc(-c2nc3cccnc3[nH]2)c1', 0),
  ('O=C(COc1ccc(-c2ccccc2)cc1)Nc1ccc(-c2nc3ncccc3[nH]2)cc1', 1),
  ('CCC/C=C/COCC(=O)Nc1cccc(-c2nc3ncccc3o2)c1', 0),
  ('O=C(COc1ccc(-c2ccccc2)cc1)Nc1ccccc1-c1nc2ncccc2[nH]1', 1),
  ('O=C(COc1ccc(C2CCCCC2)cc1)Nc1ccc(-c2nc3ncccc3[nH]2)cc1', 1);

----------
test: Kinetic solubility of compound in PBS at pH 7.4; assay type: physicochemical; settings: read-out: Kinetic_solubility
recorded-metric: solubility kinetic

INSERT INTO results (structure_smiles_string, reported) VALUES
  ('O=C(NCCCCN1CCN(c2cccc(Cl)c2Cl)CC1)Oc1cccc2ccccc12', '< 1 µM');

----------
molecular target: Cannabinoid receptor 2 (Homo sapiens); test: Displacement of [3H]-CP55940 from recombinant human CB2 receptor expressed in CHO cells incubated for 90 mins by scintillation counting method
Sequence (P34972 whole entry): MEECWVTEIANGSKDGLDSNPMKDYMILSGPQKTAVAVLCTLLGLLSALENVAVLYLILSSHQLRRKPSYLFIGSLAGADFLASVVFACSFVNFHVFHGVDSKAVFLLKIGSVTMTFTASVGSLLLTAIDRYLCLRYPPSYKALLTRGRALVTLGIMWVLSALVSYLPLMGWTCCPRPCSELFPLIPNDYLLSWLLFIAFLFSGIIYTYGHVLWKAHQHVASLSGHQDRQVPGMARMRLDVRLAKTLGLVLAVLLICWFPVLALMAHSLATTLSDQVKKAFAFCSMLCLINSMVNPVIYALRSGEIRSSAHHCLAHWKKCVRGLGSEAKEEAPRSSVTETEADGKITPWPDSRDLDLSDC
recorded-metric: IC50

INSERT INTO measurements (structure_smiles_string, reported) VALUES
  ('CCCCCOc1ccc(-c2cc(C(=O)NC34CC5CC(CC(C5)C3)C4)no2)cc1', '> 1000 nM');

----------
target: Fatty-acid amide hydrolase 1 (Homo sapiens); assay: Inhibition of human recombinant FAAH using (AMC) arachidonoyl amide as substrate preincubated for 5 mins followed by substrate addition and measured after 30 mins by fluorescence method
Sequence (O00519 whole entry): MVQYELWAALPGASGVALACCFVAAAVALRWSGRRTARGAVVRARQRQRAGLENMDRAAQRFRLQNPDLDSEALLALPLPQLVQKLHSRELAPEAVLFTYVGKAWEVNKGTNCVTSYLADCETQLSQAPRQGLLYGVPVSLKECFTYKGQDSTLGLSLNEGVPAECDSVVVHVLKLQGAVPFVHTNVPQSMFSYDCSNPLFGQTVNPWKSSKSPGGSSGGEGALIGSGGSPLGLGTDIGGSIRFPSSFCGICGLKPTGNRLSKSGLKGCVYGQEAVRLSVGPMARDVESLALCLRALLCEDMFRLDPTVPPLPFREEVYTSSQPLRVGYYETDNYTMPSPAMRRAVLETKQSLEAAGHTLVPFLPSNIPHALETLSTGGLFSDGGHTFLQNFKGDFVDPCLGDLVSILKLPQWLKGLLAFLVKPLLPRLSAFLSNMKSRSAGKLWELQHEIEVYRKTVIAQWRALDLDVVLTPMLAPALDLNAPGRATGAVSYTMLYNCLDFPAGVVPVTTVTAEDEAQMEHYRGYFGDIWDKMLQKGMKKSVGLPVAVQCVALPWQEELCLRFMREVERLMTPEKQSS
recorded-metric: IC50 (µM)

INSERT INTO results (structure_smiles_string, system_name, recorded_metric, reported) VALUES
  ('O=C1/C(=N/c2nc3ccccc3[nH]2)c2ccccc2N1C(=O)c1ccc(Cl)cc1Cl', 'Fatty-acid amide hydrolase 1 (Homo sapiens)', 'IC50', 1.49);

----------
biological target: Fatty-acid amide hydrolase 1 (Rattus norvegicus); assay: Inhibition of FAAH in rat brain homogenate using [3H]AEA as substrate; assay type: tissue-based
Catalogue of IC50 values
recorded-metric: IC50 (µM)

INSERT INTO results (structure_smiles_string, reading_unit, reported) VALUES
  ('O=C(COc1ccc(C2CCCCC2)cc1)Nc1cccc(-c2nc3ncccc3[nH]2)c1', 'µM', 47),
  ('O=C(COc1ccc(-c2ccccc2)cc1)Nc1cccc(-c2nc3cccnc3[nH]2)c1', 'µM', 13),
  ('O=C(COc1ccc(C2CCCCC2)cc1)Nc1cccc(-c2nc3ncccc3o2)c1', 'µM', 2.6),
  ('O=C(COc1ccc(-c2ccccc2)cc1)Nc1cccc(-c2nc3ncccc3o2)c1', 'µM', 0.63),
  ('O=C(COc1ccccc1)Nc1cccc(-c2nc3ncccc3o2)c1', 'µM', 18);

----------
biological target: Fatty-acid amide hydrolase 1 (Rattus norvegicus); experiment: Inhibition of FAAH in rat brain homogenate using [3H]AEA as substrate incubated for 10 mins by liquid scintillation spectroscopy; format: tissue-based
Mark class 1 only when IC50 stays strictly below 20 µM. Values equal to the cut-off are class 0.

INSERT INTO assay_data (molecule, answer_label) VALUES
  ('CC(C)Cc1ccc(C(C)C(=O)N2CCN(c3ccc(Cl)cc3)CC2)cc1 (configuration not stated)', 'class 1'),
  ('CC(C)Cc1ccc(C(C)C(=O)NCc2ccc(F)cc2)cc1 (configuration not stated)', 'class 0'),
  ('COc1ccc(CNC(=O)C(C)c2ccc(CC(C)C)cc2)cc1 (configuration not stated)', 'class 0'),
  ('COc1ccccc1CNC(=O)C(C)c1ccc(CC(C)C)cc1 (configuration not stated)', 'class 1'),
  ('CC(C)Cc1ccc(C(C)C(=O)NCc2ccc(C(C)(C)C)cc2)cc1 (configuration not stated)', 'class 0'),
  ('COc1ccc(CNC(=O)C(C)c2ccc(CC(C)C)cc2)cc1O (configuration not stated)', 'class 1'),
  ('CC(C)Cc1ccc(C(C)C(=O)N2CCN(c3ccccc3)CC2)cc1 (configuration not stated)', 'class 1'),
  ('CC(C)Cc1ccc(C(C)C(=O)NCc2ccccc2)cc1 (configuration not stated)', 'class 0'),
  ('COc1ccc(N2CCN(C(=O)C(C)c3ccc(CC(C)C)cc3)CC2)cc1 (configuration not stated)', 'class 1'),
  ('CC(C)Cc1ccc(C(C)C(=O)NCc2ccc(Cl)c(Cl)c2)cc1 (configuration not stated)', 'class 0'),
  ('CC(C)Cc1ccc(C(C)C(=O)N2CCN(c3ccc(Cl)c(Cl)c3)CC2)cc1 (configuration not stated)', 'class 1'),
  ('CC(C)Cc1ccc(C(C)C(=O)N2CCN(c3cccc(Cl)c3)CC2)cc1 (configuration not stated)', 'class 1'),
  ('Cc1cccc(N2CCN(C(=O)C(C)c3ccc(CC(C)C)cc3)CC2)c1 (configuration not stated)', 'class 1'),
  ('Cc1cccc(N2CCN(C(=O)C(C)c3ccc(CC(C)C)cc3)CC2)c1C (configuration not stated)', 'class 1'),
  ('CC(C)Cc1ccc(C(C)C(=O)NCc2ccc(Cl)cc2)cc1 (configuration not stated)', 'class 0'),
  ('CC(C)Cc1ccc(C(C)C(=O)NCc2ccc(C(F)(F)F)cc2)cc1 (configuration not stated)', 'class 0'),
  ('CC(C)Cc1ccc(C(C)C(=O)NCc2cccc(C(F)(F)F)c2)cc1 (configuration not stated)', 'class 0');

----------
target: UniProtKB P97612; assay: Inhibition of FAAH in rat brain microsomes using N-(2-hydroxyethyl)-4-pyren-1-ylbutanamide as substrate incubated for 45 mins by reverse-phase HPLC-based fluorescence assay
Param label: returns True when IC50 < 2 µM, returns False otherwise, including exact equality.

INSERT INTO assay_data (structure_smiles_string, system_name, answer_label) VALUES
  ('COC(=O)Nc1ccc2c(cnn2CC(=O)COc2ccc(Oc3ccccc3)cc2)c1', 'UniProtKB P97612', 'False'),
  ('CS(=O)(=O)NC(=O)c1ccc2c(cnn2CC(=O)COc2ccc(Oc3ccccc3)cc2)c1', 'UniProtKB P97612', 'True'),
  ('CC(=O)Nc1ccc2c(cnn2CC(=O)COc2ccc(Oc3ccccc3)cc2)c1', 'UniProtKB P97612', 'False'),
  ('O=C(COc1ccc(Oc2ccccc2)cc1)Cn1ncc2cc(C(=O)NS(=O)(=O)C(F)(F)F)ccc21', 'UniProtKB P97612', 'True'),
  ('O=C(COc1ccc(Oc2ccccc2)cc1)Cn1ncc2cc(NC(=O)Nc3ccccc3)ccc21', 'UniProtKB P97612', 'False'),
  ('O=C(Cn1nnc2ccccc21)c1nc2cc(Oc3ccccc3)ccc2o1', 'UniProtKB P97612', 'False'),
  ('O=C(COc1ccc(Oc2ccccc2)cc1)Cn1ncc2cc(C(=O)O)ccc21', 'UniProtKB P97612', 'True'),
  ('O=C(COc1ccc(Oc2ccccc2)cc1)Cn1ncc2cc(NC(=O)CO)ccc21', 'UniProtKB P97612', 'False'),
  ('O=C(COc1ccc(Oc2ccccc2)cc1)Cn1ncc2cc(NC(=O)Oc3ccccc3)ccc21', 'UniProtKB P97612', 'False'),
  ('O=C(COc1ccc(Oc2ccccc2)cc1)Cn1ncc2ccccc21', 'UniProtKB P97612', 'False');
